Molecular target: Hypoxia-inducible factor 1-alpha (Homo sapiens)
Test: ATG_HIF1a_CIS: Attagene CIS-FACTORIAL HepG2 Assay for human Hypoxia Inducible Factor 1 (HIF1A) (AID 2282951)
Conditions: HepG2 Attagene cis-factorial HIF1a reporter transcription; actives raise or lower the signal
Activity calls are given as the source filed them. Rule for the calls: active = hit-call score of the fitted dose curve at least 0.9, where 1 is the maximum; inactive = score below 0.9.
The reply should name one outcome from true (1) = active, false (0) = inactive

| line.notation | target.or.system | label.class |
| --- | --- | --- |
| O=[N+]([O-])c1ccc(C=Cc2ccc([N+](=O)[O-])cc2S(=O)(=O)O)c(S(=O)(=O)O)c1 | Hypoxia-inducible factor 1-alpha (Homo sapiens) | false (0) |
| NCCNCCN | Hypoxia-inducible factor 1-alpha (Homo sapiens) | false (0) |
| Cc1ccc(C(=O)c2cc(O)c(O)c([N+](=O)[O-])c2)cc1 | Hypoxia-inducible factor 1-alpha (Homo sapiens) | true (1) |
| CCCCCCCCCOC(C)=O | Hypoxia-inducible factor 1-alpha (Homo sapiens) | false (0) |
| CCOC(=S)SSC(=S)OCC | Hypoxia-inducible factor 1-alpha (Homo sapiens) | false (0) |
| OCCN1CCNCC1 | Hypoxia-inducible factor 1-alpha (Homo sapiens) | false (0) |
| O=c1[nH]nnc2ccccc12 | Hypoxia-inducible factor 1-alpha (Homo sapiens) | false (0) |
| c1ccc2[nH]ccc2c1 | Hypoxia-inducible factor 1-alpha (Homo sapiens) | false (0) |

Exercise: Please state the recorded outcome for this compound: "O=C(O)Cc1cccc2ccccc12"
Key: false (0)

Exercise: Which outcome did this test record for the compound "C=C(C)C(=O)OCCOC(=O)CC(C)=O" ?
Key: false (0)

Exercise: Dear all, I need the recorded test outcome for "Fc1c(F)c(F)c(Br)c(F)c1F" , thank you.
Key: false (0)

###

Target: Peroxisome proliferator-activated receptor gamma (Homo sapiens)
Assay: ATG_PPARg_TRANS: Attagene TRANS-FACTORIAL HepG2 Assay for human Peroxisome Proliferator-activated Receptor-gamma (PPARg) (AID 2283007)
Results filed as inconclusive are left out. Activity calls are given as the source filed them. The calls were made as follows: active = hit-call score of the fitted dose curve at least 0.9, where 1 is the maximum; inconclusive = response in the unintended direction; inactive = score below 0.9.
Your answer must be one of the following: yes (1) = active, no (0) = inactive

| compound | label.class |
| --- | --- |
| O=C(O)c1cccc(C(F)(F)F)c1 | no (0) |
| CCOC(=S)SSC(=S)OCC | no (0) |
| NNc1nc(-c2ccc(N)cc2)cs1 | no (0) |
| ClCCCl | no (0) |
| COc1ccc(Nc2ccccc2)c(C)c1 | yes (1) |

Exercise: Returns: the outcome recorded for "CO[Si](CCCn1c(=O)n(CCC[Si](OC)(OC)OC)c(=O)n(CCC[Si](OC)(OC)OC)c1=O)(OC)OC" in this assay.
Key: no (0)

Exercise: Which outcome was assigned to "O=Cc1ccc(F)cc1" in this test?
Key: no (0)

Exercise: Per the records of this test, what outcome belongs to COC(C(=O)O)c1ccccc1 (configuration not stated) ?
Key: no (0)

Exercise: Hi, sorry to bother you, what did the test record for "O=S(=O)(O)NC1CCCCC1" ?
Key: no (0)

Exercise: Recorded test call requested for "O=C(Nc1ccccc1)c1cc([N+](=O)[O-])ccc1Cl"
Key: yes (1)

Exercise: Assay result, entry "Cc1ccc2n[nH]nc2c1" — outcome?
Key: no (0)

Exercise: Short answer needed: outcome of this test for "O=C(O)CCSCCC(=O)O" ?
Key: no (0)

Exercise: Record lookup: outcome of this test for "C=CC(C)(C)O" ?
Key: no (0)

Exercise: Kindly provide the recorded test outcome for the following compound: "OCCCCCO"
Key: no (0)

Exercise: Any idea what this test logged for "CC(C)(CO)[N+](=O)[O-]" ?
Key: no (0)

Exercise: I'd appreciate the recorded outcome for "Cc1ccc(C=O)s1" from this test.
Key: yes (1)

Exercise: Just curious, what result did CCCOCC(C)O (configuration not stated) get here?
Key: no (0)
